# System: K562
# Assay Name: Cytotoxicity against human K562 cells assessed as reduction in cell viability measured after 72 hrs by MTT assay
# Format: functional, cell-based
# Reported Conditions: K562, 72 h
Reported Property: IC50

> print(dat)
                                   molecule  reported.property    result
1  CC(CC[C@H]1/C(=C/c2ccc([N+](=O)[O-])cc2)CC[C@H]2C(C)(C)CCC[C@]12C)CC(=O)O (some centres undefined)               IC50    169 µM
2  Cc1ccc(/C=C2\CC[C@H]3C(C)(C)CCC[C@]3(C)[C@H]2CCC(C)CC(=O)O)cc1 (some centres undefined)               IC50  > 200 µM
3  COc1ccc(/C=C2\CC[C@H]3C(C)(C)CCC[C@]3(C)[C@H]2CCC(C)CC(=O)O)cc1 (some centres undefined)               IC50  > 200 µM
4  CC(CC[C@H]1/C(=C/c2ccc(Br)cc2)CC[C@H]2C(C)(C)CCC[C@]12C)CC(=O)O (some centres undefined)               IC50  > 200 µM

Where do the numbers come from? From ChEMBL document CHEMBL5030550.
